Biological target: T1, human GITR (amino acids M1-V241, NCBI Accession #NP_004186.1) expressed on cells (human, UniProt Q9Y5U5 26-241)
T1 sequence: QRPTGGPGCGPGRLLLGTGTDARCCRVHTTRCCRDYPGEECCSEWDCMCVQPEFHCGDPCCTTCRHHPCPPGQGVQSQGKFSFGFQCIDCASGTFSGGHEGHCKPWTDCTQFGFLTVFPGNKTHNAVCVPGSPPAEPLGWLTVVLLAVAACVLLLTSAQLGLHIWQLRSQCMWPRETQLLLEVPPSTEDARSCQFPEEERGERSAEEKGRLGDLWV
Assay: cell-based or functional assay
measured-endpoint: fold activation, T-cell proliferation, 33 nM, FcgR anchored, donor 5 (fold)

| binder | reported-result |
| --- | --- |
| H4H14525P (antibody, human IgG4, V domains shown, human IgG4 (H4H)) VH: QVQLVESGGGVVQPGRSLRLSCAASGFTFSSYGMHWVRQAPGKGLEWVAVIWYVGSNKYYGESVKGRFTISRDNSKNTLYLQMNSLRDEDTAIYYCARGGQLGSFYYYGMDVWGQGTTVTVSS VL: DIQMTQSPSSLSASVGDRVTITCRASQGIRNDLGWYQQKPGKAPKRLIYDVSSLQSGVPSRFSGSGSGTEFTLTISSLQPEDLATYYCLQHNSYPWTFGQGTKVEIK | 1.5 |
| H4H14508P (antibody, human IgG4, V domains shown, human IgG4 (H4H)) VH: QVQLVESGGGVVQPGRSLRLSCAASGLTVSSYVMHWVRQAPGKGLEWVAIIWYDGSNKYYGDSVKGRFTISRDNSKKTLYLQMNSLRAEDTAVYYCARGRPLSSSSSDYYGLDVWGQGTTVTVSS VL: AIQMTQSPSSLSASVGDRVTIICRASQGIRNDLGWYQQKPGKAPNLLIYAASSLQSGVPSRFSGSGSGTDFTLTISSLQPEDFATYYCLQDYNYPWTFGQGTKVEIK | 1.3 |
| H4H14516P (antibody, human IgG4, V domains shown, human IgG4 (H4H)) VH: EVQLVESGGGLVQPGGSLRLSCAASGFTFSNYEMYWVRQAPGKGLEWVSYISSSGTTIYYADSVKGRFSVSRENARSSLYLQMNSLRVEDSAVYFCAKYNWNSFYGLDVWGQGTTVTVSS VL: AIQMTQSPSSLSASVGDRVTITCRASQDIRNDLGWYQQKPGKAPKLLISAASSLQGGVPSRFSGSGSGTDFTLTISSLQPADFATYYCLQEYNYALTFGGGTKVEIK | 1.1 |
| H4H14476P (antibody, human IgG4, V domains shown, human IgG4 (H4H)) VH: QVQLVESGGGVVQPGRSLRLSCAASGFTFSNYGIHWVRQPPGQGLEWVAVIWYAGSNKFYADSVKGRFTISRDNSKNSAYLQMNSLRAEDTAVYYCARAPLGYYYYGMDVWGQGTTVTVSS VL: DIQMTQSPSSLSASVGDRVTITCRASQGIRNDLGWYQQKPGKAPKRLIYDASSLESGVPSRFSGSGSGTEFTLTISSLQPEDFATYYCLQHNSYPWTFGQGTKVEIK | 0.1 |
